- System: Escherichia coli TOP10
- procedure.text: shrunken log2 fold change of peptide-encoding DNA abundance (4.5 h post-induction vs induction); higher = less antimicrobial activity (less host growth inhibition)
- conditions: time post-induction: 4.5 h; library: site-saturation at positions 5, 18, 19, 20
Label true when shrunken log2 fold change is at or above 0.08; otherwise label false.

Q) Kindly determine if shrunken log2 fold change recorded for RRIRHRPPRLPRPRPRPKWGPRP is above or exactly 0.08.
A) true

###

- System: Escherichia coli TOP10;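 also: peptides expressed intracellularly from a pBAD plasmid library in pooled LB shake-flask culture, induced with 0.3% L-arabinose, DNA abundance read by NGS, three biological replicates, DESeq2 with apeglm shrinkage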
- procedure.text: shrunken log2 fold change of peptide-encoding DNA abundance (4.5 h post-induction vs induction); higher = less antimicrobial activity (less host growth inhibition)
- conditions: time post-induction: 4.5 h; library: site-saturation at positions 5, 18, 19, 20
metric.name: shrunken log2 fold change
Give the value as a plain number.

The examples below pair each entry with its known result.
RRIRMRPPRLPRPRPRPLLPPRP
0.354
RRIRMRPPRLPRPRPRPENEPRP
2.96
RRIRYRPPRLPRPRPRPPPYPRP
-0.0871

Note: attention shifts to another entry.
Q) Give its shrunken log2 fold change value. Item: RRIRPRPPRLPRPRPRPNFVPRP
A) -0.0668

These data points were gathered from the supplement of paper PMC9112550.
